B1: POU domain, class 3, transcription factor 3, residues 320 to 388; numbered along this chain, P20264 (parent)
chain: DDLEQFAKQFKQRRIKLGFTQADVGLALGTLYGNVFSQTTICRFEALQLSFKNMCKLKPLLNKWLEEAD

# Variants of: B1
# test protocol: abundance fitness (aPCA) (normalised: wild type 0, dead -1); higher = more abundant; growth selection in yeast, the domain comes from the species named
# run conditions: Homo sapiens

>  <mut>
N34C

>  <abundance fitness>
0.307

$$$$
>  <mut>
Q38P

>  <abundance fitness>
-0.028

$$$$
>  <mut>
Y32D

>  <abundance fitness>
-0.352

$$$$
>  <mut>
A27Y

>  <abundance fitness>
-0.502

$$$$
>  <mut>
L31K

>  <abundance fitness>
-0.118

$$$$
>  <mut>
T30S

>  <abundance fitness>
0.01

$$$$
>  <mut>
V24N

>  <abundance fitness>
-0.74

$$$$
>  <mut>
C42N

>  <abundance fitness>
0.208

$$$$
>  <mut>
L31D

>  <abundance fitness>
-0.017

$$$$
>  <mut>
F44M

>  <abundance fitness>
-0.725

$$$$
>  <mut>
Y32Q

>  <abundance fitness>
-0.102

$$$$
>  <mut>
R43W

>  <abundance fitness>
-0.866

$$$$
>  <mut>
G29C

>  <abundance fitness>
-0.594

$$$$
>  <mut>
G33S

>  <abundance fitness>
-0.885

$$$$
>  <mut>
F36L

>  <abundance fitness>
-0.07

$$$$
>  <mut>
L28M

>  <abundance fitness>
-0.594

$$$$
>  <mut>
T30Q

>  <abundance fitness>
0.1

$$$$
>  <mut>
C42Y

>  <abundance fitness>
0.055

$$$$
>  <mut>
F36R

>  <abundance fitness>
0.368

$$$$
>  <mut>
R43G

>  <abundance fitness>
-0.798

$$$$
>  <mut>
Q38G

>  <abundance fitness>
0.003

$$$$
>  <mut>
Q38N

>  <abundance fitness>
-0.435

$$$$

The values you see were collected from the Human Domainome abundance scans (Beltran et al. 2025).
